meta.source: patent US8883963B2

System: RIN5F (Rat Insulinoma) cells
Assay: In vitro glucose-dependent insulin secretion (RIN5F cell assay screening protocol)
Format: cell-based
Settings: 10 nM test compd., 16.7 mM glucose load
Starred links: 1 amine or outer side, 2 acyl side, 3 side chain; linkers in the order of their positions; H or OH if unused. Non-standard residues stand in square brackets, D forms with d. Residues, ends and D or L forms follow the SMILES beside them. ξ: configuration not given here. ξBip(2'-Et-4'-OMe) = CCc1cc(OC)ccc1-c1ccc(CC(N)C(=O)O)cc1; ξNva(5-(3-Cl-Ph)) = NC(CCCc1cccc(Cl)c1)C(=O)O; X10 = O=C(C(CCCc1ccc(F)cc1F)N[*:1])[*:2]; Ac5c = NC1(C(=O)O)CCCC1
endpoint.label: Insulin secretion
Include the unit right after the number.

Solved entries (count: 5):
| compound | endpoint.label | result |
| --- | --- | --- |
| CCc1cc(OC)ccc1-c1ccc(CC(NC(=O)[C@H](CC(=O)O)NC(=O)[C@H](CO)NC(=O)[C@@H](NC(=O)C(C)(Cc2ccccc2F)NC(=O)[C@@H](NC(=O)CNC(=O)C(CCC#N)NC(=O)C(C)(C)NC(=O)[C@@H](N)Cc2c[nH]cn2)[C@H](C)O)[C@H](C)O)C(=S)NC(CCCc2ccccc2)C(N)=O)cc1 (single isomer, unassigned) | Insulin secretion | 35.6 ± 0.17 pg/µg/h |
| CCc1cc(OC)ccc1-c1ccc(CC(NC(=O)[C@H](CC(=O)O)NC(=O)[C@H](CO)NC(=O)[C@@H](NC(=O)[C@H](Cc2ccccc2)NC(=O)[C@@H](NC(=O)CNC(=O)[C@H](CCC(N)=O)NC(=O)C2(NC(=O)[C@@H](N)Cc3c[nH]cn3)CCCC2)[C@@H](C)O)[C@@H](C)O)C(=O)NC(CCCc2cccc(Cl)c2)C(N)=O)cc1 (stereo partly drawn) [compound 27] (H-H[Ac5c]QGTFTSD[ξBip(2'-Et-4'-OMe)][ξNva(5-(3-Cl-Ph))]-NH2) | Insulin secretion | 36.6 ± 0.05 pg/µg/h |
| CCc1cc(OC)ccc1-c1ccc(CC(NC(=O)[C@H](CC(=O)O)NC(=O)[C@H](CO)NC(=O)[C@@H](NC(=O)C(C)(Cc2ccccc2F)NC(=O)[C@@H](NC(=O)CNC(=O)C(CCC#N)NC(=O)C(C)(C)NC(=O)[C@@H](N)Cc2c[nH]cn2)[C@H](C)O)[C@H](C)O)C(=O)NC(CCCc2ccccc2)C(N)=O)cc1 (single isomer, unassigned) | Insulin secretion | 36.6 ± 0.19 pg/µg/h |
| CCc1cc(OC)ccc1-c1ccc(CC(NC(=O)[C@H](CC(=O)O)NC(=O)[C@H](CO)NC(=O)[C@@H](NC(=O)[C@H](Cc2ccccc2)NC(=O)[C@@H](NC(=O)CNC(=O)[C@H](CCC(N)=O)NC(=O)[C@H](CO)NC(=O)[C@@H](N)Cc2c[nH]cn2)[C@@H](C)O)[C@@H](C)O)C(=O)NC(CCCc2ccc(F)cc2F)C(N)=O)cc1 (stereo partly drawn) [compound 46] (H-HSQGTFTSD[ξBip(2'-Et-4'-OMe)][X10]-NH2) | Insulin secretion | 29.3 ± 0.19 pg/µg/h |
| CCc1cc(OC)ccc1-c1ccc(CC(NC(=O)[C@H](CC(=O)O)NC(=O)[C@H](CO)NC(=O)[C@@H](NC(=O)[C@H](Cc2ccccc2)NC(=O)[C@@H](NC(=O)CNC(=O)C(CCC#N)NC(=O)C(C)(C)NC(=O)[C@@H](N)Cc2c[nH]cn2)[C@@H](C)O)[C@@H](C)O)C(=O)NC(CCCc2ccc(F)cc2C(F)(F)F)C(N)=O)cc1 (single isomer, unassigned) | Insulin secretion | 36.2 ± 0.09 pg/µg/h |

Now for a further compound.
Record CCc1cc(OC)ccc1-c1ccc(CC(NC(=O)[C@H](CC(=O)O)NC(=O)[C@H](CO)NC(=O)[C@@H](NC(=O)[C@H](Cc2ccccc2)NC(=O)[C@@H](NC(=O)CNC(=O)C(CCC#N)NC(=O)C(C)(C)NC(=O)[C@@H](N)Cc2c[nH]cn2)[C@@H](C)O)[C@@H](C)O)C(=O)NC(CCCc2ccc(OC)cc2Cl)C(N)=O)cc1 (single isomer, unassigned) , field Insulin secretion: 27.8 ± 0.46 pg/µg/h
